Recorded fold reduction in binding compared to the chimeric antibody for the following binders
measured on: T1, recombinant soluble CD4 (rsCD4) (UniProt P01730 26-396, limits assumed)
T1 construct: Bought reagent coated on ELISA plates at 0.25 µg/ml; also called solid-phase rsCD4
protocol: ELISA on rsCD4

# count of solved cases: 2
Looking up deimmunized B4 antibody DIVHv.3/VKv.2 produced by NS0 cells (antibody, human IgG1, V domains shown, Human IgG1 and human kappa constant regions; NS0 cells; also called DIVHv.3/V v.2; DIVH3/VK2) VH: QVQLVQSGAEVKKPGASVKVSCKASGYTFTDYVIHWVKQATGQGLEWIGEIYPGSGSAYSNAKFKDRVTITADKSTNTAYMELRSLRSDDTAVYFCARRGNGTGFAYWGQGTLVTVSS VL: DIVLTQSPASLAVSPGQRATITCKAGQSVDYDGDSYMNWYQQKPGQPPKLLIYVASNLESGIPSRFSGSGSGTDFTLTINPVEENDTATYYCQQSYKDPLTFGQGTKVEIK , I found its fold reduction in binding compared to the chimeric antibody recorded as < 3 fold

Looking up deimmunized B4 antibody DIVHv.2/VKv.2 produced by NS0 cells (antibody, human IgG1, V domains shown, Human IgG1 and human kappa constant regions; NS0 cells; also called DIVHv.2/V v.2; DIVH2/VK2) VH: QVQLVQSGAEVKKPGASVKVSCKASGYTFTDYVIHWVRQATGQGLEWIGEIYPGSGSAYSNAKFKDRVTITADKSTNTAYMELRSLRSDDTAVYFCARRGNGTGFAYWGQGTLVTVSS VL: DIVLTQSPASLAVSPGQRATITCKAGQSVDYDGDSYMNWYQQKPGQPPKLLIYVASNLESGIPSRFSGSGSGTDFTLTINPVEENDTATYYCQQSYKDPLTFGQGTKVEIK , I found its fold reduction in binding compared to the chimeric antibody recorded as < 3 fold

Continuing:
Looking up deimmunized B4 antibody DIVHv.4/VKv.1 produced by NS0 cells (antibody, human IgG1, V domains shown, Human IgG1 and human kappa constant regions; NS0 cells; also called DIVHv.4/V v.1) VH: QVQLVQSGAEVKKPGASVKVSCKASGYTFTDYVIHWVRQATGQGLEWIGEIYPGSGSAYSNSKFKDRVTITADKSTNTAYMELRSLRSDDTAVYFCARRGNGTGFAYWGQGTLVTVSS VL: DIVLTQSPASLAVSLGQRATITCKAGQSVDYDGDSYMNWYQQKPGQPPKLLIYVASNLESGIPARFSGSGSGTDFTLNIHPVEENDAATYYCQQSYKDPLTFGQGTKLEIK , I found its fold reduction in binding compared to the chimeric antibody recorded as < 3 fold
